This listing pairs variants with measured self-cleavage.
B1: LINE1-full (parent)
chain: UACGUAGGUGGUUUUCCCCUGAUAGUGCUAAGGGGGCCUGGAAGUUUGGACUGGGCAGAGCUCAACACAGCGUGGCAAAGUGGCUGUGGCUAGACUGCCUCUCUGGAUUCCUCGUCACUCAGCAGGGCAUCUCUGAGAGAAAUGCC

# Variants of: B1
# assay protocol: self-cleavage, relative activity (ratio to wild type); higher = more cleavage; in vitro, sequencing; the parent is a self-cleaving ribozyme
test readout: self-cleavage

# input sequence, test value
records = [
    ("UACGUAGGUGGUCUUCCCCUGAUAGUGCUAAGGGGGCCUGUAAGUUUGGACUGGGCAGAGCUCAACACAGCGUGGCAAAGUGGCUGUGGCUAGACUGCCUCUCUGGAUUCCUCGUCACUCAGCAGGGCAUCUCUGAGAGAAAUGCC [U13C G41U]", 1.14),
    ("UACGUAGGUGGUUUUCCCCUUAUAGUGCUAAGGGGGCCUGGAAGUUUGGACUGGGCAGAGCUCAACACAGCGUGGCAAAGUGGCUGUGGCCAGACUGCCUCUCUGGAUUCCUCGUCACUCAGCAGGGCAUCUCUGAGAGAAAUGCC [G21U U91C]", 0.45),
    ("UACGUAGGUGGUUUUCCCCUGGUAGUGCUAAGGGGGCCUGGAAGUUUGGACUGGGCAGAGCUCAACACAGCGUGGCAAAGUGGCUGUGGCUAGACUGCCUCUCUGGAUUCCUCGUCACUCAGCAGGGCAUCUCUGAGAGUAAUGCC [A22G A140U]", 1.05),
    ("UACGUAGGUGGUCUUCCCCUGAUAGUGCUAAGGGGGCCUGGAAGUUUGGACUGGGCAGAGCUCAACACAGCGUGGCAAAGUGGCUGUGGCUAGUCUGCCUCUCUGGAUUCCUCGUCACUCAGCAGGGCAUCUCUGAGAGAAAUGCC [U13C A94U]", 0.42),
    ("UACGUAGGUGGUUUUCCCCUGAUAGUGCUGAGGGGGCCUGGAAGUUUGGACUGGGCAGAGCUCAACACAGCGUGGCAAAGUGGCUGUGGCUAGACUGCCACUCUGGAUUCCUCGUCACUCAGCAGGGCAUCUCUGAGAGAAAUGCC [A30G U100A]", 1.59),
    ("CACGUAGGUGGUUUUCCCCUGAUAGUGCUAAGGGGGCCUGGAAGUUUGGACUGGGCAGAGCUCAACACAGCGUGGCAAAGUGGCUGUGGCUAGACUGCCUCUCUGGAUUCCUCGUCACUCAGCAAGGCAUCUCUGAGAGAAAUGCC [U1C G125A]", 1.34),
    ("UACGUAGGUGGUUUUCCCCUGAUAGUGCUAAGGGGGCCUGGAAGUUUGGACUGGGCAGAGCUCAACACAGCGUGGCAAAGUGGCUGUGGCUAGACUGCCUCUCUGGAUUCCUCGUCACACAGCAGGGCAUCUCUGAGAGAGAUGCC [U119A A141G]", 1.74),
    ("UACGUAGGUGGUUUUCCCCUGAUAGUGCUAAGGGGGCCUGGAAGUUUGGACUGGGCAGAGCUCAACACAGCGCGGCAAAGUGGCAGUGGCUAGACUGCCUCUCUGGAUUCCUCGUCACUCAGCAGGGCAUCUCUGAGAGAAAUGCC [U73C U85A]", 0.08),
    ("UACGUAGGUGGUUUUCCCCUGAUAGUGCUAAGGGGGCCUGGAAGUUUGAACUGGGCAGAGCUCAACACAGCGUGGCAAAGUGGCUGUGGCUAGACUGCCUCUCUGGAUUCCUCGUCACCCAGCAGGGCAUCUCUGAGAGAAAUGCC [G49A U119C]", 0.62),
    ("UACGUAGUUGGUUUUCCCCUGAUAGUGCUAAGGGGGCCUGGAAGUUUGGACUGGGCAGAGCUCAACACAGCGUGGCAAAGUGGCUGUGGCUAGACUGCCUCUCUGGAUUCCUCGCCACUCAGCAGGGCAUCUCUGAGAGAAAUGCC [G8U U115C]", 1.93),
    ("UACGUAGGUGGUUUUCCCCUGAUAGUGCUAAGGGGGCCUGGAAGUUUGGACUGGGCAGAGCUCAACACAGCGCGGCAAAGUGGCUGUGGCUAGACUGCCUCUCUGGACUCCUCGUCACUCAGCAGGGCAUCUCUGAGAGAAAUGCC [U73C U108C]", 0.95),
    ("UACGUAGGUGGUUUUCCCCUGUUAGUGCUAAGGGGGCCUGGAAGUUUGGACUGGGCAGAGCACAACACAGCGUGGCAAAGUGGCUGUGGCUAGACUGCCUCUCUGGAUUCCUCGUCACUCAGCAGGGCAUCUCUGAGAGAAAUGCC [A22U U62A]", 0),
    ("UACGUUGGUGGUUUUCCCCUGAUAGUGCUAAGGGGGCCUGGAAGUUUGGACUGGGCAGAGCUCAACACAGCGUGUCAAAGUGGCUGUGGCUAGACUGCCUCUCUGGAUUCCUCGUCACUCAGCAGGGCAUCUCUGAGAGAAAUGCC [A6U G75U]", 0.53),
    ("UAAGUAGGUGGUUUUCCCCUGAUAGUGCUAAGGGGGCCUGGAAGUUUGGACUGGGCAGAGCUCAACACAGCGUGGCAAAGUGGCUGUGGCUAGACUGCCUCUCUGGAUUCCUCGUCACUCAGCAGGGCAUCUCUGAGAGAAAUGCC [C3A]", 0.69),
    ("UACGUAGGUGGUUUUCCCCUGAUAGUGCUAAGGGGGCCUGGAAGUUUGGACUGGGCAGUGCUCAACACAGCGUGGCAAAGUGGCUGUGGCUAGACUGCCUCUCUGGAUUCCUCGUCACUCAGCAGGGCAUCUCUGGGAGAAAUGCC [A59U A136G]", 1.1),
    ("UACGUAGGUGGAUUUCCCCUGACAGUGCUAAGGGGGCCUGGAAGUUUGGACUGGGCAGAGCUCAACACAGCGUGGCAAAGUGGCUGUGGCUAGACUGCCUCUCUGGAUUCCUCGUCACUCAGCAGGGCAUCUCUGAGAGAAAUGCC [U12A U23C]", 1.47),
    ("CACGUAGGUGGUUUUCCCCUGAUAGUGCUAAGGGGGCCUGGAAGUUUGGACUGGGCAGAGCUCAACACGGCGUGGCAAAGUGGCUGUGGCUAGACUGCCUCUCUGGAUUCCUCGUCACUCAGCAGGGCAUCUCUGAGAGAAAUGCC [U1C A69G]", 0.42),
    ("UACGUAGGUGGUUUUCCCCUGGUAGUGCUAAGGGGGCCUGGAAGUUUGGACUGGGCAGAGCUCAACACAGCGUGGCAAAGUGGCUGUGGCUAGACUGCCUCUCUGGAUUCCUCGUUACUCAGCAGGGCAUCUCUGAGAGAAAUGCC [A22G C116U]", 0.24),
    ("UACGUAGGUGGUUUUCCCCUGAUAGUGCUAAGGGGGCCUGGAAGUUUGGACUGGGCAGAGCUCAACACAGCGUGGCAACGUGGCUGUGGCUAGACUGCCUCUCUGGAUUCCUCGUCACUCAGCAGGGCAUCUCAGAGAGAAAUGCC [A79C U134A]", 1.24),
    ("UACGUAGGUGAUUUUCCCCUGAUAGUGCUAAGGGGGCCUGGAAGUUUGGACUGGGCAGAGCUCAACACAGCGUGGCAAAGUGGCUGUGGCUAGACUGCCUCUCUGGAUUCCCCGUCACUCAGCAGGGCAUCUCUGAGAGAAAUGCC [G11A U112C]", 1.37),
    ("UACGUAGGUGGUUUUCCCCUGAUAGUGCUAAGGGGGCCUGGAAGUUUGGACUGGGCAGAGCUCAACACAGCGGGGCAAAGUGGCUGUGGCUAGACUGCCUCUCUGGAUUCCUCGUCACUCAGCAGGGCAUCUCUGAGAGAAGUGCC [U73G A142G]", 1.2),
    ("UACGUAGGUGGUUUUCCCCUGAUAGUGCUAAGGGGGCCUGGAAGUUUGGACUGGGCAGAGUUCAACACAGCGUGGCAAAGUGGCUGUGGCUAGACUGCCUCUCUGGAUUCCUCGUCACUCAGCAGGGCAUCUCUGAGAGAGAUGCC [C61U A141G]", 0.05),
    ("UACGUAGGUGGUUUUCCCCUGAUAGUGCUAAGGGGGCCUGGAAGUUUGGACAGGGCAGAGCUCAACACAGCGUGGCAAAGUGGCUGUGGCUAGGCUGCCUCUCUGGAUUCCUCGUCACUCAGCAGGGCAUCUCUGAGAGAAAUGCC [U52A A94G]", 0.33),
    ("UACGUAGGUGGUUUUCCCCUGACAGUGCUAAGGGGGCCUGGAAGUUUGGACUGGGCAGAGCUCAACACAGCGUGGCAAAGUGGCUGUGGCUAGACUGCCUCUCUGGAUUCCUCGUCACUCAGCAGGGCAUCUAUGAGAGAAAUGCC [U23C C133A]", 1.09),
    ("UACGUAGGUGGUUUUCCCCUGAUAGUGCUAAGGGGGCCUGGACGUUUGGACUGGGCAGAGCUCAACACAGCGUGGCAAAGUGGCUGUGGCUAGACUGCCUCUCUGGAUUCCCCGUCACUCAGCAGGGCAUCUCUGAGAGAAAUGCC [A43C U112C]", 2.1),
    ("UACGUAGGUGGUUUUCCCCUGAUAGUGCUAAGGGGGCCUGGAAGUUUGGACUGGGCAGAGCUCUACACAGCGUGGCAAAGUGGCUGUGGCUAGACUGCCUCUCUGGAUUCCUCGUCACUCAGCAGGGCACCUCUGAGAGAAAUGCC [A64U U130C]", 0.55),
    ("UACGUAGGUGGUUUUCCCCUGAUAGUGCUAAGGGGGCCUGGAAGUCUGGACUGGGCAGAGCUCAACACAGCGUGGCAAGGUGGCUGUGGCUAGACUGCCUCUCUGGAUUCCUCGUCACUCAGCAGGGCAUCUCUGAGAGAAAUGCC [U46C A79G]", 1.29),
    ("UACGUAGGUGGUCUUCCCCUGAUAGUGCUAAGGGGGCCUGGAAGUUUGGACUGGGCAGAGCUCAACACAGCGUGGCAAAGUGGCUGUGGCUAGACUGCCUCUCUGGAUUCCUCGUCACGCAGCAGGGCAUCUCUGAGAGAAAUGCC [U13C U119G]", 1.28),
    ("UACGUAGGUGGUCUUCCCCUGAUAGUGCUAGGGGGGCCUGGAAGUUUGGACUGGGCAGAGCUCAACACAGCGUGGCAAAGUGGCUGUGGCUAGACUGCCUCUCUGGAUUCCUCGUCACUCAGCAGGGCAUCUCUGAGAGAAAUGCC [U13C A31G]", 0.84),
    ("UACGUAGGUGGUUUUCCCCUGAUAGUGCUAAGGGGGCCUGGAAGUUUGGACUGGGCAGAGCUCAACACUGCGUGGCAAAGUGGCUGUAGCUAGACUGCCUCUCUGGAUUCCUCGUCACUCAGCAGGGCAUCUCUGAGAGAAAUGCC [A69U G88A]", 0.01),
    ("UACGUAGGUGGUUUUCCCCUGAUAGUGCUAAGGGGGCCUGGAAGUUUGGACUGGGCAGAGCUAAGCACAGCGUGGCAAAGUGGCUGUGGCUAGACUGCCUCUCUGGAUUCCUCGUCACUCAGCAGGGCAUCUCUGAGAGAAAUGCC [C63A A65G]", 0.02),
    ("UACGUAGGUGGUUUUCCCCUGGUAGUGCUAAGGGGGCCUGGAAGUUUGGACUGGGCAGAGCUCAACACAGCGUGGCAAAGUGGCUGUGGCUAGACUGCCUCUCUGGAUUCCUCGUCACUCAACAGGGCAUCUCUGAGAGAAAUGCC [A22G G122A]", 0),
    ("UACGUAGGUGGUUUUCCCCUGAUAGUGCUAAGGGGGCCUGGAAGUUCGGACUGGGCAGAGCUCAACACAGCGUGGCAAAGUGGCUGUGGCUAGACUGCCUCUCAGGAUUCCUCGUCACUCAGCAGGGCAUCUCUGAGAGAAAUGCC [U47C U104A]", 1.23),
    ("UACGUAGGUGGUUUUCCCCUGCUAGUGCUAAGGGGGCCUGGAAGUUUGGACUGGGCAGAGCUCAACACAGCGUGGCAAAGUGGCUGUGGCUAGACUGCCUCUCUGGAUUCCUCGUCACUCAGCAGGGCAUCUCUGAGAGAAAUGCC [A22C]", 1.51),
    ("UACGUAGGUGGUUUCCCCCUGAUAGUGCUAAGGGGGCCUGGAAGUUUGGACUGGGCAGAGCUCAACACAGCGUGGCAAAGUGGCUGUGGCUAGACUGCCUCUCUGGAUUCCUCGCCACUCAGCAGGGCAUCUCUGAGAGAAAUGCC [U15C U115C]", 1.68),
]
